Tested on: A2780 cells
Test: In-Vitro Cell Proliferation Assay (SRB)
Format: cell-based
Conditions: Homo sapiens, A2780, 72 h
Procedure: In-Vitro Cell Proliferation Assay […] After overnight incubation at 37° C. and 5% CO2, the compound titrations were performed in a separate dilution plate by serially diluting the compounds in DMSO to make a 1000× stock. […] The number of viable cells was then assessed using sulforhodamine B (SRB) assay. […] The plates were then read in a microplate reader at an absorbance of 570 nm. […] Percent inhibitions were determined using the method given above.
readoutName: IC50
Write the numeric value and follow it with the unit.

Recorded results for 2 molecules are shown here.
{"entrySmiles": "CN(C)c1ncc(S(=O)(=O)c2ccc(CNC(=NC#N)Nc3ccncc3)cc2)cn1", "observedValue": "7 nM"}
{"entrySmiles": "COc1cncc(S(=O)(=O)c2ccc(CNC(=NC#N)Nc3ccncc3)cc2)c1", "observedValue": "9.1 nM"}

Okay, next one:
Per the record, `N#C/N=C(\NCc1ccc(S(=O)(=O)c2ccccc2)cc1)Nc1ccncc1` has IC50 of 12 nM
